Target: MAO-A (Rattus norvegicus, UniProt P21396)
Sequence (P21396 1-526): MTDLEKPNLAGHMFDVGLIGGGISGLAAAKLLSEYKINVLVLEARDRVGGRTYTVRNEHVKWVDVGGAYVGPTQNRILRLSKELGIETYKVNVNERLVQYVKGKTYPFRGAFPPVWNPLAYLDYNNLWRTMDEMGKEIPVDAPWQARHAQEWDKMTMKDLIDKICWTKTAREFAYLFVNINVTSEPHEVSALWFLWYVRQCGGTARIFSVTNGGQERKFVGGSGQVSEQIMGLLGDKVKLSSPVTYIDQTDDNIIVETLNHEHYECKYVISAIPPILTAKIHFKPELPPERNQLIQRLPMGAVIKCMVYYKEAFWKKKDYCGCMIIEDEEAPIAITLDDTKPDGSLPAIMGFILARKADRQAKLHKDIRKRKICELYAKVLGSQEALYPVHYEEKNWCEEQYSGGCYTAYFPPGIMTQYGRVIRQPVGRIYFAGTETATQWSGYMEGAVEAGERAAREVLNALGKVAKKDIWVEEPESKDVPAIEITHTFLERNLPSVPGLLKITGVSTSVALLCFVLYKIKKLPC
pIC50: −log10 of the molar value.
Mark YES for reported pIC50 of 5 or greater; mark NO for anything smaller.

>>> cat("NNC(=O)Cc1cc(=O)oc2cc(OCc3ccccc3)ccc12")
"YES"
>>> cat("NCCc1cc(=O)oc2cc(OCc3cccc(Cl)c3)ccc12")
"NO"
>>> cat("NC(=O)Cc1cc(=O)oc2cc(OCc3cccc(F)c3)ccc12")
"NO"
>>> cat("NCc1cc(=O)oc2cc(OCc3cccc(Cl)c3)ccc12")
"YES"
>>> cat("CNCc1cc(=O)oc2cc(OCc3cccc(Cl)c3)ccc12")
"YES"

* * *

Target: MAO-B (Rattus norvegicus, UniProt P19643)
Sequence (P19643 1-520): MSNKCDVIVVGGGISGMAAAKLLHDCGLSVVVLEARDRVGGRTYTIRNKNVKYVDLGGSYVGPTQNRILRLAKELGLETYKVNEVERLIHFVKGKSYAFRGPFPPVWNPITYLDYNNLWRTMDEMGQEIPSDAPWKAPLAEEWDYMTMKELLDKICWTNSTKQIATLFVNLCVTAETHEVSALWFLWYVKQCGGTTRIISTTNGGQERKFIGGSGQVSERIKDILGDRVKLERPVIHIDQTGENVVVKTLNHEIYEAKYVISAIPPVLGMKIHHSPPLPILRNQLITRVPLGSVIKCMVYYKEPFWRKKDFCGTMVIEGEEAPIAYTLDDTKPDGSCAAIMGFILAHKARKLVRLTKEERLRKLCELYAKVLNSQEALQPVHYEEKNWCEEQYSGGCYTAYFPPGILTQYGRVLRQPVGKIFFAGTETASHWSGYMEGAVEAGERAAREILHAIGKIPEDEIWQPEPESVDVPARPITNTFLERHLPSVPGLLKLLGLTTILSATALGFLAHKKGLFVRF
pIC50: −log10 of the molar value.
readout_name: pIC50

>>> reading("CNCCc1cc(=O)oc2cc(OCc3cccc(Cl)c3)ccc12")
6.52
>>> reading("NCCc1cc(=O)oc2cc(OCc3cccc(Cl)c3)ccc12")
6.60
>>> reading("CNCc1cc(=O)oc2cc(OCc3cccc(Cl)c3)ccc12")
8.00
>>> reading("CN(C)C(=O)Cc1cc(=O)oc2cc(OCc3cccc(Cl)c3)ccc12")
7.40
>>> reading("CNCc1cc(=O)oc2cc(OCc3cccc(F)c3)ccc12")
7.70
>>> reading("NCc1cc(=O)oc2cc(OCc3cccc(Cl)c3)ccc12")
8.00
